Recorded measurements of remaining at 9 h, 1 μM, one per entry
target: DPPIV (Homo sapiens, UniProt P27487); assay: In vitro plasma stability of GLP1CM peptides (kinetic test method); conditions: human, 10% human plasma, pH 7.8
Sequence (P27487 39-766 limits assumed): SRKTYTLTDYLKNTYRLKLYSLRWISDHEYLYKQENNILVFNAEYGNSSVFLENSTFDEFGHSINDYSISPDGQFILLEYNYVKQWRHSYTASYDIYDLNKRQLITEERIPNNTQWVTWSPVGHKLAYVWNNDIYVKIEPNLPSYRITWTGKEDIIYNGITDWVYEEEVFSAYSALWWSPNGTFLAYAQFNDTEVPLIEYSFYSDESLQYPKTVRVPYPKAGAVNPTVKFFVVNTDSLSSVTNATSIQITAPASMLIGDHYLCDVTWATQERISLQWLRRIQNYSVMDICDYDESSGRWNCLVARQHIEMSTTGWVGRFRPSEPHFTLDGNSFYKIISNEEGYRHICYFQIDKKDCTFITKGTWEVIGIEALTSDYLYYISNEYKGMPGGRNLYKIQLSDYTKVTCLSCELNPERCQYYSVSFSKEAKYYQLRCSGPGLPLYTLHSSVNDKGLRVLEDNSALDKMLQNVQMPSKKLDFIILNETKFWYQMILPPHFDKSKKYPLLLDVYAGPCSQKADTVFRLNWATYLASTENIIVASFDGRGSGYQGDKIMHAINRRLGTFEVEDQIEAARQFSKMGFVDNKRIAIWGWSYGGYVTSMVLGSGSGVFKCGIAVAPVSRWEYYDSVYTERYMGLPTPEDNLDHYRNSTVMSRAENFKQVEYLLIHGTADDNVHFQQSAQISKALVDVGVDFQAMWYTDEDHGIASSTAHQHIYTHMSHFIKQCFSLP
Ends that are not written are not given here.

Some sequences with known remaining at 9 h, 1 μM results, for comparison:
INSERT INTO measurements (polymersequence, measured) VALUES
  ('HAEGTFTSDVSSYLEGQAAKEFIAWLVKGRGRRDFAEEVAIAEELG [CM3-ANA02]', '65%'),
  ('HAEGTFTSDVSSYLEGQAAKEFIAWLVKGRGAADAAAAVAIAAALG [CM3-ANA04]', '65%');

API: the following record is the query input.
Query: Using the record for HAEGTFTSDVSSYLEGQAAKEFIAWLVKGRGRRDAAAAVAIAEELG [CM3-ANA03] , report its remaining at 9 h, 1 μM.
Response: 30%

====

Property: DT80; scope: individual sequences
molecular target: DPPIV (Homo sapiens); assay: In vitro plasma stability of GLP1CM peptides (kinetic test method); settings: time needed to degrade active GLP-1 to 80% of the 0 h value; 1 μM peptide, 10% human plasma, 37° C.
Ends that are not written are not given here.
Answer in h, number only, no unit symbol.

Query: Need DT80, item HAEGTFTSDVSSYLEGQAAKEFIAWLVKGRGRRDAAAAVAIAEELG [CM3-ANA03]
Response: 1.6

====

target: DPPIV (Homo sapiens); assay: in vitro; details: plasma, pH 7.8
Ends that are not written are not given here.
readout: remaining at 9 h, 1 μM (%)
The response must be a number in % with no trailing unit.

Query: # input sequence: HAEGTFTSDVSSYLEGQAAKEFIAWLVKGRGRRDFPEEVAIAEELGRRHAC [CM3-ANA09] ; wanted: its remaining at 9 h, 1 μM
Response: 60

====

Reported DT80 is given for each of the following sequences.
biological target: DPPIV (Homo sapiens, UniProt P27487); assay: In vitro plasma stability of GLP1CM peptides (kinetic test method); conditions: time needed to degrade active GLP-1 to 80% of the 0 h value; 1 μM peptide, 10% human plasma, 37° C.
Ends that are not written are not given here.
Supply the numeric figure in h, leaving out any unit text.

These solved cases illustrate the format of a correct answer.
INSERT INTO measurements (polymersequence, readout, unitdescriptor, measured) VALUES
  ('HAEGTFTSDVSSYLEGQAAKEFIAWLVKGRGAADAAAAVAIAAALG [CM3-ANA04]', 'DT80', 'h', 4.7),
  ('HAEGTFTSDVSSYLEGQAAKEFIAWLVKGRGRRDFPEEVAIAEELG [CM3]', 'DT80', 'h', 4.4);

Query: Name the recorded DT80 for HAEGTFTSDVSSYLEGQAAKEFIAWLVKGRGRRDFAEEVAIAEELG [CM3-ANA02] .
Response: 4.5

Reference source for all entries: patent US8431533B2
